ASSAY_CONTEXT: [M+H]+; instrument: DT; stepped-field
MEASURED_ATTRIBUTE: collision cross section (N2) (Å²)

What value of measured collision cross section (N2) is listed for CC1(C)S[C@@H]2[C@H](NC(=O)[C@H](N)c3ccccc3)C(=O)N2[C@H]1C(=O)O [Ampicillin] ?
193.17

I = CC(=O)NCCCCN [N-Acetylputrescine]
II = CO[C@H]1/C=C/O[C@@]2(C)Oc3c(C)c(O)c4c(c3C2=O)C(=O)/C(=C/NN2CCN(C)CC2)C(=C4O)NC(=O)/C(C)=C\C=C\[C@H](C)[C@H](O)[C@@H](C)[C@@H](O)[C@@H](C)[C@H](OC(C)=O)[C@@H]1C [Rifampicin]
Which value of collision cross section (N2) is smaller, the one for I or the one for II ? Your choice should be expressed through its label.
I
